Listed next: entries and their corresponding MIC.
Tested on: Haemophilus influenzae 76
assay: MIC, standard agar-dilution assay
Type: cell-based
Supply the numeric figure in µg/mL, leaving out any unit text.

Below: 5 compounds and their reported MIC.
[
  {
    "compound": "CCCCNC1(C)CC(OC2C(Oc3c4cc5cc3Oc3ccc(cc3Cl)C(O)C3NC(=O)C(NC(=O)C5NC(=O)C(CC(N)=O)NC(=O)C(NC(=O)C(CC(C)C)NC)C(O)c5ccc(c(Cl)c5)O4)c4ccc(O)c(c4)-c4c(O)cc(O)cc4C(C(=O)O)NC3=O)OC(CO)C(O)C2O)OC(C)C1O (stereo not drawn)",
    "reported_measurement": 128
  },
  {
    "compound": "CCCCOc1ccc(CNC2(C)CC(OC3C(Oc4c5cc6cc4Oc4ccc(cc4Cl)C(O)C4NC(=O)C(NC(=O)C6NC(=O)C(CC(N)=O)NC(=O)C(NC(=O)C(CC(C)C)NC)C(O)c6ccc(c(Cl)c6)O5)c5ccc(O)c(c5)-c5c(O)cc(O)cc5C(C(=O)O)NC4=O)OC(CO)C(O)C3O)OC(C)C2O)cc1 (stereo not drawn)",
    "reported_measurement": 64
  },
  {
    "compound": "CCCNC1(C)CC(OC2C(Oc3c4cc5cc3Oc3ccc(cc3Cl)C(O)C(NC(=O)C(CC(C)C)N(C)CCC)C(=O)NC(CC(N)=O)C(=O)NC5C(=O)NC3C(=O)NC(C(=O)NC(C(=O)O)c5cc(O)cc(O)c5-c5cc3ccc5O)C(O)c3ccc(c(Cl)c3)O4)OC(CO)C(O)C2O)OC(C)C1O (stereo not drawn)",
    "reported_measurement": 128
  },
  {
    "compound": "CCCCCCCCCCNC1(C)CC(OC2C(Oc3c4cc5cc3Oc3ccc(cc3Cl)C(O)C3NC(=O)C(NC(=O)C5NC(=O)C(CC(N)=O)NC(=O)C(NC(=O)C(CC(C)C)NC)C(O)c5ccc(c(Cl)c5)O4)c4ccc(O)c(c4)-c4c(O)cc(O)cc4C(C(=O)O)NC3=O)OC(CO)C(O)C2O)OC(C)C1O (stereo not drawn)",
    "reported_measurement": 128
  },
  {
    "compound": "CCN(CC)c1ccc(CNC2(C)CC(OC3C(Oc4c5cc6cc4Oc4ccc(cc4Cl)C(O)C4NC(=O)C(NC(=O)C6NC(=O)C(CC(N)=O)NC(=O)C(NC(=O)C(CC(C)C)NC)C(O)c6ccc(c(Cl)c6)O5)c5ccc(O)c(c5)-c5c(O)cc(O)cc5C(C(=O)O)NC4=O)OC(CO)C(O)C3O)OC(C)C2O)cc1 (stereo not drawn)",
    "reported_measurement": 128
  }
]

Task item: Output measured MIC for this item: CCCCCCCCN(C)C(CC(C)C)C(=O)NC1C(=O)NC(CC(N)=O)C(=O)NC2C(=O)NC3C(=O)NC(C(=O)NC(C(=O)O)c4cc(O)cc(O)c4-c4cc3ccc4O)C(O)c3ccc(c(Cl)c3)Oc3cc2cc(c3OC2OC(CO)C(O)C(O)C2OC2CC(C)(N)C(O)C(C)O2)Oc2ccc(cc2Cl)C1O (stereo not drawn)
Reply: 128

Task item: Output measured MIC for this item: CCCCc1ccc(CNC2(C)CC(OC3C(Oc4c5cc6cc4Oc4ccc(cc4Cl)C(O)C4NC(=O)C(NC(=O)C6NC(=O)C(CC(N)=O)NC(=O)C(NC(=O)C(CC(C)C)NC)C(O)c6ccc(c(Cl)c6)O5)c5ccc(O)c(c5)-c5c(O)cc(O)cc5C(C(=O)O)NC4=O)OC(CO)C(O)C3O)OC(C)C2O)cc1 (stereo not drawn)
Reply: 32

Task item: Output measured MIC for this item: CCCCCCCNC1(C)CC(OC2C(Oc3c4cc5cc3Oc3ccc(cc3Cl)C(O)C(NC(=O)C(CC(C)C)N(C)CCCCCCC)C(=O)NC(CC(N)=O)C(=O)NC5C(=O)NC3C(=O)NC(C(=O)NC(C(=O)O)c5cc(O)cc(O)c5-c5cc3ccc5O)C(O)c3ccc(c(Cl)c3)O4)OC(CO)C(O)C2O)OC(C)C1O (stereo not drawn)
Reply: 128
